system: SK-BR-3 (Her2 amp); assay: Growth inhibition GI50 in vitro (CCK8/MTT, 72 h); format: cell-based, human; settings: Homo sapiens, SK-BR-3; HER2 positive cell line; range of GI50; read-out: GI50 SK-BR-3
Below is a list of entries, each paired with its recorded GI50 value.
recorded_metric: GI50

query_smiles=C=CC(=O)Nc1cc(Nc2nccc(Nc3cccc(Cl)c3)n2)c(OC)cc1N(C)CCN(C)C recorded_metric=GI50 measured="10 to 100 nM"
query_smiles=C=CC(=O)Nc1cc(Nc2ncnc(Nc3cccc(Br)c3)n2)c(OC)cc1N(C)CCN(C)C recorded_metric=GI50 measured="< 10 nM"
query_smiles=C=CC(=O)Nc1cc(Nc2nccc(-n3ccc4cc(F)c(F)cc43)n2)c(OC)cc1N(C)CCN(C)C recorded_metric=GI50 measured="100 to 1000 nM"
query_smiles=C=CC(=O)Nc1cc(Nc2ncnc(Nc3cccc(Cl)c3)n2)c(OC)cc1N(C)CCN(C)C recorded_metric=GI50 measured="10 to 100 nM"
query_smiles=C=CC(=O)Nc1cc(Nc2cc(-c3cn(C)c4ccccc34)ncn2)c(OC)cc1N1CCC(N2CCN(C)CC2)CC1 recorded_metric=GI50 measured="10 to 100 nM"
query_smiles=C=CC(=O)Nc1cc(Nc2ncnc(Nc3cccc(Br)c3)n2)c(OC)cc1N1CCCN(C)CC1 recorded_metric=GI50 measured="10 to 100 nM"
query_smiles=C=CC(=O)Nc1cc(Nc2cc(-c3cn(C)c4ccccc34)ncn2)c(OC)cc1N(C)CCN1CCCC1 recorded_metric=GI50 measured="100 to 1000 nM"
query_smiles=C=CC(=O)Nc1cc(Nc2ncc(Cl)c(Nc3ccc(OCc4ccccn4)c(Cl)c3)n2)c(OC)cc1N(C)CCN(C)C recorded_metric=GI50 measured="10 to 100 nM"
query_smiles=C=CC(=O)Nc1cc(Nc2cc(Nc3ccc(F)c(Cl)c3)ncn2)c(OC)cc1N(C)CCN(C)C recorded_metric=GI50 measured="< 10 nM"
query_smiles=C=CC(=O)Nc1cc(Nc2cc(-c3cn(C)c4ccc(F)cc34)ncn2)c(OC)cc1N(C)CCN(C)C recorded_metric=GI50 measured="< 10 nM"
query_smiles=C=CC(=O)Nc1cc(Nc2cc(Nc3cccc(Br)c3)ncn2)c(OC)cc1N(C)CCN(C)C recorded_metric=GI50 measured="< 10 nM"
query_smiles=C=CC(=O)Nc1cc(Nc2ncnc(Nc3cccc(Br)c3)n2)c(OC)cc1N1CCC(N2CCCC2)CC1 recorded_metric=GI50 measured="10 to 100 nM"
query_smiles=C=CC(=O)Nc1cc(Nc2cc(-c3cn(C)c4cc(F)ccc34)ncn2)c(OC)cc1N(C)CCN(C)C recorded_metric=GI50 measured="10 to 100 nM"
query_smiles=C=CC(=O)Nc1cc(Nc2nccc(-n3ccc4cc(C)ccc43)n2)c(OC)cc1N(C)CCN(C)C recorded_metric=GI50 measured="100 to 1000 nM"
query_smiles=C=CC(=O)Nc1cc(Nc2nccc(-n3ccc4cc(OC)ccc43)n2)c(OC)cc1N(C)CCN(C)C recorded_metric=GI50 measured="10 to 100 nM"
